Reference source for all entries: the supplement of paper PMC8967900

- Tested on: MHH-CALL-2;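 further: ALL cell lines in 384-well plates, five doses spanning 10,000-fold, each plate scaled between vehicle and 100 µmol/L benzalkonium chloride controls, sDSS an adapted area-under-curve metric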
- methodSummary: selective drug sensitivity score (sDSS, relative to normal bone marrow) (sDSS (score)); higher = more potent and effective on the cell line relative to normal bone marrow cells
- testSettings: 72 h
Short version: selective drug sensitivity score at least 3 is y, less is n.

Solved cases (5 shown):
[[record]]
molecule = "CC(C)(O)CC(=O)NCCn1ccc2ncnc(Nc3ccc(Oc4cccc(C(F)(F)F)c4)c(Cl)c3)c21 [TAK-285] (top concentration 2500 nM)"
discretelabel = "n"

[[record]]
molecule = "Cn1cc(C[C@@H](N)C(=O)O)c2ccccc21 [1-methyl-D-tryptophan] (top concentration 5000 nM)"
discretelabel = "n"

[[record]]
molecule = "Cc1ccc(C(=O)Nc2cccc(C(F)(F)F)c2)cc1Nc1nc(-c2cccnc2)nc2c1cnn2C [NVP-BHG712] (top concentration 10000 nM)"
discretelabel = "y"

[[record]]
molecule = "CC(C)(C#N)c1cc(Cn2cncn2)cc(C(C)(C)C#N)c1 [Anastrozole] (top concentration 10000 nM)"
discretelabel = "n"

[[record]]
molecule = "O=C(Nc1cccc(Nc2ncc(Br)c(NCCc3cnc[nH]3)n2)c1)N1CCCC1 [BX-912] (top concentration 10000 nM)"
discretelabel = "n"


Item Cc1cc(C(C)Nc2ccccc2)c2nc(N3CCOCC3)cc(=O)n2c1 (stereo not drawn) [TGX-221] (top concentration 10000 nM) with selective drug sensitivity score of 3 or above?
y
